- Tested on: Bacillus subtilis
- Assay Name: cleaved RNA product abundance (RNA/gDNA barcode ratio) relative to median wild-type variant (ratio to wild type); higher = more accumulation of the downstream cleavage product
- Experimental Setup: experiment (reporter, strain, medium): exp 8a: truncated aprE reporter, strain BJT201 with 2% xylose (RNase J1 expressed); cleavage site: glnRA (positions -5 to +31 mutated)
Recorded cleaved RNA product abundance, one value per entry.

Sequence Data	cleaved RNA product abundance
CGACATGTCCCGCTTCTTTCATTAATTCGTTAGCAACTGTTTTGCTATATACATTTACCATTTAAGAGGAGGAAT	1.22
CGACATGTCCCGCTTCTTTCATTAATCCGGTATCAACTGTTTTGCTATATACATTTACCTTTTAAGAGGAGGAAT	0.375
CGACATGTCCCGCTTCTTTCATTAATCAGTTAGCAACTGTTTTGCAATATACATTTACCTTTTAAGAGGAGGAAT	0.332
CGACATGTCCCGCTTCTTTCATTATTCCGTTAGCCACTGTTTTGCTATATACATTTACCTTTTAAGAGGAGGAAT	0.595
CGACATGTCCCGCTTCTTTCATTAACCCGTTAGCAACTGTTTTGCTATATAGATTTACCTTTTAAGAGGAGGAAT	0.53
CGACATGTCCCGCTTCTTTCATTAATCCATTTGCAACTGTTTTGCTATATACATTTACCTTTTAAGAGGAGGAAT	0.236
CGACATGTCCCGCTTCTTTCATTAATCCGTTAGCAACTGTTTTGCTATATACATTTTCTTTTTAAGAGGAGGAAT	0.842

###

- System: Bacillus subtilis
- Assay Name: cleaved RNA product abundance (RNA/gDNA barcode ratio) relative to median wild-type variant (ratio to wild type); higher = more accumulation of the downstream cleavage product
- Experimental Setup: experiment (reporter, strain, medium): exp 8a: truncated aprE reporter, strain BJT201 with 2% xylose (RNase J1 expressed); cleavage site: glnRA (positions -5 to +31 mutated)

Sequence Data	cleaved RNA product abundance
CGACATGTCCCGCTTCTTTCATTAATCCGTTACCAACTGTTTTGTTATATACATTTACCTTTTAAGAGGAGGAAT	0.231
CGACATGTCCCGCTTCTTTCATTAATCAGTTAGCTACTGTTTTGCTATATACATTTACCTTTTAAGAGGAGGAAT	0.423
CGACATGTCCCGCTTCTTTCATTAATCCATTAGAAACTGTTTTGCTATATAGATTTACCTTTTAAGAGGAGGAAT	0.302
CGACATGTCCCGCTTCTTTCATTAATCTGTTAGCAACTGTTATCCTATATACATTTACCTTTTAAGAGGAGGAAT	0.577

###

Recorded cleaved RNA product abundance, one value per entry.
- System: Bacillus subtilis
- Assay Name: cleaved RNA product abundance (RNA/gDNA barcode ratio) relative to median wild-type variant (ratio to wild type); higher = more accumulation of the downstream cleavage product
- Experimental Setup: experiment (reporter, strain, medium): exp 2b: truncated aprE reporter, strain BJT200; cleavage site: cggR-gapA (positions -7 to +36 mutated)

Sequence Data	cleaved RNA product abundance
ACAGACGAAGGAGCCGCACAGAAGTTATTAAGAGATGAATAATCCCTCAATATAAATATCTCTCACTTATTTAAA	0.134
ACAGACGAAGGAGCCGCAAAGACGTTATTAAGAGATGAATAATCCCTCAATATAAATATCTCTCACTTATTTAAA	0.101
ACAGACGAAGGAGCCGCAAAGAAGTTATTAAGGGATGAATAATCCCTCATTATAAATATCTCTCACTTATTTAAA	0.263
ACAGACGAAGGAGCCGCAAAGAAGTTATTAAGGGAAGAATAATCCCTCAAAATAAATATCTCTCACTTATTTAAA	0.17
ACAGACGAAGGAGCCGCAAAGAAGTTATTAAAGGATGAATATTCCCTAAATATAAATATCTCTCACTTATTTAAA	0.0923
ACAGACGAAGGAGCCGCAAAGAATTTATTAAGGGATGAATAATCCCTCAATATAAATATCTCTCACTTATTTAAA	0.775
ACAGACGAAGGAGCCGCAAAGAAGTTATTAAGGGATGAATAATTCGTCAATATAAATATCTCTCACTTATTTAAA	0.0726
ACAGACGAAGGAGCCGCATAGAACTTATTAAGGGATGAATAATCCCTCAATATAAATATCTCTCACTTATTTAAA	0.341
ACAGACGAAGGAGCCGCAGAGAAGTTATTAAGAGATGAATAATCCCTCAATATAAATATCTCTCACTTATTTAAA	0.0994
ACAGACGAAGGAGCCGCAAAGAGGTTATTAATGGATGAATAATCCCTCAATATAAATATCTCTCACTTATTTAAA	0.13
ACAGACGAAGGAGCCGCGAAGAAGTTATTAAGGCATGAATAATCCCTCAATATAAATATCTCTCACTTATTTAAA	0.0773
ACAGACGAAGGAGCCGCAAAGAAGTTATGAAGGGAGGAATAATCCCTCAATATAAATATCTCTCACTTATTTAAA	0.22
ACAGACGAAGGAGCCGCAAAGAAGTTATTAAGGGATGAATAATCCCTCTAAATAAATATCTCTCACTTATTTAAA	0.36
ACAGACGAAGGAGCCGCAAAGAAGTTATTAAGGGATGAATAATCCATCAATATAAATATCTCTCACTTATTTAAA	0.184
ACAGACGAAGGAGCCGCAAAGAAGTTCTTAAGGGATGAAGAATCCCTCAATATAAATATCTCTCACTTATTTAAA	0.14
